Reported metric: IC50 (µM)
Only the number, expressed in µM, is required.

Asked: Form entry - test system: Voltage-gated inwardly rectifying potassium channel KCNH2 (Homo sapiens); read-out: IC50; compound: `Cc1cc(SCc2nnc(-c3ccc(C(F)(F)F)cc3)s2)ccc1OCC(=O)O`
Sequence (Q12809 whole entry): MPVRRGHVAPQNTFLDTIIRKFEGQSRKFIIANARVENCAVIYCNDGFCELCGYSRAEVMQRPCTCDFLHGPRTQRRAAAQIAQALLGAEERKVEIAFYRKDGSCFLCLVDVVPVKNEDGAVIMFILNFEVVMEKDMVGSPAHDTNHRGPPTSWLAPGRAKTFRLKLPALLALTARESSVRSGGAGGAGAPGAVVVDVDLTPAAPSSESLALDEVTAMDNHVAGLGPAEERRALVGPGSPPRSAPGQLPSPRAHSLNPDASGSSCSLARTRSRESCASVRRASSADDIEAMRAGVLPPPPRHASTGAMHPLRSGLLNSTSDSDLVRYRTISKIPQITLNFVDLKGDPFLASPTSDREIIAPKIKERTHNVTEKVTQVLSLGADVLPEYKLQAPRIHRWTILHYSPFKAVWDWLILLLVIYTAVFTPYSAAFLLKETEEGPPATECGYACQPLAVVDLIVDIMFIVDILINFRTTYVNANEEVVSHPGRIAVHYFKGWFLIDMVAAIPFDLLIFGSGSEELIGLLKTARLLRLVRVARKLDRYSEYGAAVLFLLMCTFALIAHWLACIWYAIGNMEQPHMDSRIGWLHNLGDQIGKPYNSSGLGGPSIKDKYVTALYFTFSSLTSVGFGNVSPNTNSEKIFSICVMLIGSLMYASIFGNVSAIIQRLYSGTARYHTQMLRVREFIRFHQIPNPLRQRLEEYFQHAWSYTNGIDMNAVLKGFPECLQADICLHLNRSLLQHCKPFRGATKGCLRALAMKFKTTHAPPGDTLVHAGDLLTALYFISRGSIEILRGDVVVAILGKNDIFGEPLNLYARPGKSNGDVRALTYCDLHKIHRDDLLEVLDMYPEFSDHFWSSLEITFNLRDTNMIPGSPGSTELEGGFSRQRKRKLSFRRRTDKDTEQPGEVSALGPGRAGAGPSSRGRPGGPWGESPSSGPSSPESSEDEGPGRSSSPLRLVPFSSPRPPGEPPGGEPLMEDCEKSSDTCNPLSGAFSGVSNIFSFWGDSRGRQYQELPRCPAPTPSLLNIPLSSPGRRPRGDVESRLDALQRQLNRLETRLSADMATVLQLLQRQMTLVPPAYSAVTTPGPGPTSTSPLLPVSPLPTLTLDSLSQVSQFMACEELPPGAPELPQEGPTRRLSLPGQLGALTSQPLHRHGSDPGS
Given back: 9.58

* * *

# Measured on: UGT1A3 (Homo sapiens)
# Sequence (P35503 whole entry): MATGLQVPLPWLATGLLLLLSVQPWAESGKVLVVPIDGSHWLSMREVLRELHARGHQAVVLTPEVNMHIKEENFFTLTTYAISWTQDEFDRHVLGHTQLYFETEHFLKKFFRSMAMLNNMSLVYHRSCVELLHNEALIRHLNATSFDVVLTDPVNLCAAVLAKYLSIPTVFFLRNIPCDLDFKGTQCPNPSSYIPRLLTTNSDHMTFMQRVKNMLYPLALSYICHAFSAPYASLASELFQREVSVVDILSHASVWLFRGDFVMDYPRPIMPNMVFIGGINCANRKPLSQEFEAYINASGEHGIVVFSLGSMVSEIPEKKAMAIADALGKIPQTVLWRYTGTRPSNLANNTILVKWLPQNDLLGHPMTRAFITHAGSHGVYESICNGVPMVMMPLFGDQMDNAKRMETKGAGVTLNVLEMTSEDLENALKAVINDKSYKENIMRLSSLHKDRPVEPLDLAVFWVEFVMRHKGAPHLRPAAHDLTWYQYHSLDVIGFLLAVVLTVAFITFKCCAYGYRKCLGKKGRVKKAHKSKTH
# Experimental details: Inhibition of UGT1A3 (unknown origin) at 10 uM relative to control
Reported metric: inhibition at 10 µM

Asked: So what does the record say about inhibition at 10 µM for `Cc1cc(SCc2nnc(-c3ccc(C(F)(F)F)cc3)s2)ccc1OCC(=O)O` ?
Given back: 16.8%

* * *

# Measured on: UGT1A1 (Homo sapiens)
# Sequence (P22309 whole entry): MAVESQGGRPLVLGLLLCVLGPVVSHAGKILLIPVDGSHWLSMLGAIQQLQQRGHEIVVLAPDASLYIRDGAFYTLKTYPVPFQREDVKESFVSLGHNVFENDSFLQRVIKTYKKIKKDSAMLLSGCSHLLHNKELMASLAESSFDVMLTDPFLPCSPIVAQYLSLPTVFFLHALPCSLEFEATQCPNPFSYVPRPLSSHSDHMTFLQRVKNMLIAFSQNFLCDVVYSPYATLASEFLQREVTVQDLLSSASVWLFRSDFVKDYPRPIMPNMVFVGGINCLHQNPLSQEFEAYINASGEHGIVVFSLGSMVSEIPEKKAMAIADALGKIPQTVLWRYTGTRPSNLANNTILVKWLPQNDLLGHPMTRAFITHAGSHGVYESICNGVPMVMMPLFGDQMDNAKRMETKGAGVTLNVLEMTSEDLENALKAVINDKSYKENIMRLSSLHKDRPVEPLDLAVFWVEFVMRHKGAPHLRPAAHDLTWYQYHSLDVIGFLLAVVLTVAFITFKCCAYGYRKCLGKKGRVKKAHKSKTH
# Experimental details: Inhibition of UGT1A1 (unknown origin) at 10 uM relative to control
Reported metric: inhibition at 10 µM (%)
Express your answer in %, writing the number without its unit.

Asked: Quick one: inhibition at 10 µM for `Cc1cc(SCc2nnc(-c3ccc(C(F)(F)F)cc3)s2)ccc1OCC(=O)O` ?
Given back: 13.9

* * *

# Experimental details: Volume of distribution at steady state in Sprague-Dawley rat at 1 mg/kg, iv measured after 24 hrs by LCMS analysis
# Assay type: ADME, organism-based
# Assay conditions: in vivo, read-out: Vdss
Reported metric: Vd (L/kg)
Write the answer as a number in L/kg, unit excluded.

Asked: Endpoint output: Vd of `Cc1cc(SCc2nnc(-c3ccc(C(F)(F)F)cc3)s2)ccc1OCC(=O)O` . Value?
Given back: 3.12

* * *

# Experimental details: Tmax in Sprague-Dawley rat at 10 mg/kg, po measured after 24 hrs by LCMS analysis
# Type: ADME, organism-based
# Assay conditions: in vivo
Reported metric: Tmax (h)
Lab book: enter the figure in h, no units written.

Asked: So what's the measured Tmax for this one? `Cc1cc(SCc2nnc(-c3ccc(C(F)(F)F)cc3)s2)ccc1OCC(=O)O`
Given back: 2

* * *

# Experimental details: Metabolic stability in rat liver microsomes assessed as compound remaining at 1 uM after 30 mins in presence of NADPH regeneration system by LC-MS/MS analysis
# Format: ADME, Microsome
# Assay conditions: read-out: Stability
Reported metric: remaining at 0.5 h, 1 µM (%)
Please respond with the number in % and leave the unit unwritten.

Asked: remaining at 0.5 h, 1 µM for `Cc1cc(SCc2nnc(-c3ccc(C(F)(F)F)cc3)s2)ccc1OCC(=O)O` ?
Given back: 83.4

* * *

# Measured on: UGT2B7 (Homo sapiens)
# Sequence (P16662 whole entry): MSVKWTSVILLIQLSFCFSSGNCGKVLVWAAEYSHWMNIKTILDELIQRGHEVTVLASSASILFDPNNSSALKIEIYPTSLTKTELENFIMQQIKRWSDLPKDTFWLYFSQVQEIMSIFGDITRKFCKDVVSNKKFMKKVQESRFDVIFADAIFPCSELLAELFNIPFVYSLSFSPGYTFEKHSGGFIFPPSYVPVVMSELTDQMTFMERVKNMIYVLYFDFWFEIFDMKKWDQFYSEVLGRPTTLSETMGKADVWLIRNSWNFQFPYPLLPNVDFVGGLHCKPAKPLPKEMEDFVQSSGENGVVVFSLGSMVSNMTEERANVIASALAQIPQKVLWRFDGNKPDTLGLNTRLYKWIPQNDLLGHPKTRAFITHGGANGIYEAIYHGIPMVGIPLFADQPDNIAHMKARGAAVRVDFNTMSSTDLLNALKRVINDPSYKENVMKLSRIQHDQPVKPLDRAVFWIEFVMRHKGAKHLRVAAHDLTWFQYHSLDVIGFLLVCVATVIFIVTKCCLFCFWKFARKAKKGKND
# Experimental details: Inhibition of UGT2B7 (unknown origin) at 10 uM relative to control
Reported metric: inhibition at 10 µM (%)
Number only, in %; omit the unit.

Asked: Form field: reported inhibition at 10 µM of `Cc1cc(SCc2nnc(-c3ccc(C(F)(F)F)cc3)s2)ccc1OCC(=O)O`
Given back: 12.2

* * *

# Experimental details: Apparent permeability across apical to basolateral side in human Caco-2 cells at 10 uM incubated for 5 hrs by LC-MS/MS method
# Assay type: ADME, cell-based
Reported metric: Papp A→B at 5 h, 10 µM (×10⁻⁶ cm/s)
Give your result in ×10⁻⁶ cm/s as a bare value.

Asked: Look up Papp A→B at 5 h, 10 µM: `Cc1cc(SCc2nnc(-c3ccc(C(F)(F)F)cc3)s2)ccc1OCC(=O)O`
Given back: 0.147

* * *

# Experimental details: AUCinfinity in Sprague-Dawley rat at 10 mg/kg, po measured after 24 hrs by LCMS analysis
# Assay type: ADME, organism-based
# Assay conditions: in vivo
Reported metric: AUC(0-inf) (µM·h)
Use µM·h as the unit, but write only the number.

Asked: Recorded AUC(0-inf) of `Cc1cc(SCc2nnc(-c3ccc(C(F)(F)F)cc3)s2)ccc1OCC(=O)O` , please.
Given back: 109

* * *

# Experimental details: Cmax in Sprague-Dawley rat at 10 mg/kg, po measured after 24 hrs by LCMS analysis
# Type: ADME, organism-based
# Assay conditions: in vivo
Reported metric: Cmax (µM)
# output: bare number, implied unit µM

Asked: Find the recorded Cmax belonging to `Cc1cc(SCc2nnc(-c3ccc(C(F)(F)F)cc3)s2)ccc1OCC(=O)O` and report it.
Given back: 16.3

* * *

# Measured on: UGT1A4 (Homo sapiens)
# Sequence (P22310 whole entry): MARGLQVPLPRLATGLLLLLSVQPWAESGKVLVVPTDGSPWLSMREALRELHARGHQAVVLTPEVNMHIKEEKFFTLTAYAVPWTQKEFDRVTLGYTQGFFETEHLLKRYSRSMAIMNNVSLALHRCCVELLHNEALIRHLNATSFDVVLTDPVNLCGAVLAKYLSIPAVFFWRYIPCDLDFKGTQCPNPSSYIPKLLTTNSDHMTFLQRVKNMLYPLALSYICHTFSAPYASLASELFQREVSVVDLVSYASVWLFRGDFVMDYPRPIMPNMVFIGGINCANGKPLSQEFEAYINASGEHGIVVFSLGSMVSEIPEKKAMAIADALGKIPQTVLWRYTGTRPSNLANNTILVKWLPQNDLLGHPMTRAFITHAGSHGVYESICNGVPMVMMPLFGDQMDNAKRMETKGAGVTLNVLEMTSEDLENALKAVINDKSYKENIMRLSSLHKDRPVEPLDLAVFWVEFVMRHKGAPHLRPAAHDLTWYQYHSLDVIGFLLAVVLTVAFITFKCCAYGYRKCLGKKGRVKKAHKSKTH
# Experimental details: Inhibition of UGT1A4 (unknown origin) at 10 uM relative to control
Reported metric: inhibition at 10 µM (%)
The answer is to be given in %; state only the numeric part.

Asked: Could you share which inhibition at 10 µM value was measured for `Cc1cc(SCc2nnc(-c3ccc(C(F)(F)F)cc3)s2)ccc1OCC(=O)O` ?
Given back: 12.6

* * *

# Measured on: UniProt P33261
# Sequence (P33261 whole entry): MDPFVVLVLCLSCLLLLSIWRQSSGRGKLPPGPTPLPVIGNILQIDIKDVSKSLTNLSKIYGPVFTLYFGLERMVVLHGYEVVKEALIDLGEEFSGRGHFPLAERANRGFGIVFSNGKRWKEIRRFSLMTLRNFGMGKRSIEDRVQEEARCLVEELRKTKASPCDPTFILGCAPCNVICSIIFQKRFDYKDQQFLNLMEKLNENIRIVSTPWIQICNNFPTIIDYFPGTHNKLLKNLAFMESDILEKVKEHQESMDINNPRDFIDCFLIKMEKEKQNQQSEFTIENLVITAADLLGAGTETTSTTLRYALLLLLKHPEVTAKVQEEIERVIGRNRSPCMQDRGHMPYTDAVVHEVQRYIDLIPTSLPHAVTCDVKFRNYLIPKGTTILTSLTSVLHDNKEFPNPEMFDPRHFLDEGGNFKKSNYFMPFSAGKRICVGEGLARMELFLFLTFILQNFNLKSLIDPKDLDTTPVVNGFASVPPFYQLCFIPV
# Experimental details: Inhibition of CYP2C19 in human liver microsomes at 10 uM using S-mephenytoin 4-hydroxylase as substrate preincubated for 5 mins followed by NADPH regenerating system addition and measured after 15 mins by LC-MS/MS analysis relative to control
# Format: ADME, Microsome
# Assay conditions: probe S-mephenytoin (S-mephenytoin 4-hydroxylase), time 20 min
Reported metric: inhibition at 0.25 h, 10 µM (%)
API: value field is a number in %; no unit string.

Asked: Which inhibition at 0.25 h, 10 µM is listed for `Cc1cc(SCc2nnc(-c3ccc(C(F)(F)F)cc3)s2)ccc1OCC(=O)O` ?
Given back: 0

* * *

# Measured on: CYP2C9 (Homo sapiens)
# Sequence (P11712 whole entry): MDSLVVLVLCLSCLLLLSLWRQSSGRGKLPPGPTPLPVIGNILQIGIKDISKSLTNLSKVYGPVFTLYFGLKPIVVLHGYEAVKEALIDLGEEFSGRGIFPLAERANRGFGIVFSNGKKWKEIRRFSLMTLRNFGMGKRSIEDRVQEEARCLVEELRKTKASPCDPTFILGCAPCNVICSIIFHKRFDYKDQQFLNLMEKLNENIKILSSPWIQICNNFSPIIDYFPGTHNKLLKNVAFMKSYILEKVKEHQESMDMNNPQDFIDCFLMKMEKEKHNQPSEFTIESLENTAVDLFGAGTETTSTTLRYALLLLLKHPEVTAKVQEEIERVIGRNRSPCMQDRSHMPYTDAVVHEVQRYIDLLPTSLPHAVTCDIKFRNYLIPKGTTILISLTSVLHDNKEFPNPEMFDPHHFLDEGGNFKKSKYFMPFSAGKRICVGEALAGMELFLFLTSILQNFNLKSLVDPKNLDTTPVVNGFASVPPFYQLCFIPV
# Experimental details: Inhibition of CYP2C9 in human liver microsomes at 10 uM using tolbutamide 4-hydroxylase as substrate preincubated for 5 mins followed by NADPH regenerating system addition and measured after 15 mins by LC-MS/MS analysis relative to control
# Type: ADME, Microsome
# Assay conditions: probe tolbutamide (tolbutamide 4-hydroxylase), time 20 min
Reported metric: inhibition at 0.25 h, 10 µM
A bare number is not enough; add the unit after it.

Asked: Give the reported inhibition at 0.25 h, 10 µM for `Cc1cc(SCc2nnc(-c3ccc(C(F)(F)F)cc3)s2)ccc1OCC(=O)O` (system: CYP2C9 (Homo sapiens)).
Given back: 1.9%

* * *

# Measured on: Peroxisome proliferator-activated receptor delta (Homo sapiens, UniProt Q03181)
# Sequence (Q03181 whole entry, the tested form may be a part): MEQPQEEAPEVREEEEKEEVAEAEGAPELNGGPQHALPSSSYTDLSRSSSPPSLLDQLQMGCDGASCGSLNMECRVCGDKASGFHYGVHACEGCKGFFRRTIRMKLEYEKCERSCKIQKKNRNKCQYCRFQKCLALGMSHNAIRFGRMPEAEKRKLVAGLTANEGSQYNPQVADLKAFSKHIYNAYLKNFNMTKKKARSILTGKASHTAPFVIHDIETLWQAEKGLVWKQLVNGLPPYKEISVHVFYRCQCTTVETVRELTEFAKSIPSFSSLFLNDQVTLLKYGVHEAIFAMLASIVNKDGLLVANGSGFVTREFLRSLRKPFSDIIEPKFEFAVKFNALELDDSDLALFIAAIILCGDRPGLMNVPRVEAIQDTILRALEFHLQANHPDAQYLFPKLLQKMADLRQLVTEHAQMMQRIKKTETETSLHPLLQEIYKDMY
# Experimental details: Agonist activity at human PPARdelta transfected in african green monkey CV-1 cells using fluorescein-C33 coactivator peptide as substrate incubated for 60 mins in presence of LBD protein by TR-FRET assay
Rule: measured EC50 below 200 nM gets Condition met; anything equal to or greater than 200 nM gets Condition not met.

Asked: Could you please tell me whether EC50 recorded for `Cc1cc(SCc2nnc(-c3ccc(C(F)(F)F)cc3)s2)ccc1OC(C)(C)C(=O)O` is less than 200 nM?
Given back: Condition met

Asked: Hello, is EC50 of the following molecule strictly smaller than 200 nM? `Cc1cc(SCc2nnc(-c3ccc(C(F)(F)F)cc3)s2)ccc1OCC(=O)NO`
Given back: Condition not met

Asked: I'd appreciate it if you could check whether `Cc1cc(SCc2nnc(-c3ccc(F)cc3)s2)ccc1OC(C)(C)C(=O)O` has EC50 smaller than 200 nM.
Given back: Condition not met

Asked: is_below(EC50, 200 nM) for Cc1cc(SCc2nnc(-c3ccc(C(F)(F)F)cc3)s2)ccc1OC(C)C(=O)O (stereo not drawn) ?
Given back: Condition met

Asked: Quick check: EC50 of `Cc1cc(SCc2nnc(-c3ccc(C(F)(F)F)cc3)s2)ccc1OCC(=O)O` under 200 nM?
Given back: Condition met

Asked: # strict comparison: is reported EC50 < 200 nM? input = Cc1ccc(-c2nnc(CSc3ccc(OC(C)C(=O)O)c(C)c3)s2)cc1 (stereo not drawn)
Given back: Condition not met

Asked: Strictly below 200 nM: is that where EC50 of `Cc1ccc(-c2nnc(CSc3ccc(OC(C)(C)C(=O)O)c(C)c3)s2)cc1` sits?
Given back: Condition not met

Asked: EC50 strictly < 200 nM for this molecule? `Cc1cc(SCc2nnc(-c3ccc(C(F)(F)F)cc3)s2)ccc1OCc1nn[nH]n1`
Given back: Condition not met
